Exercise: state measured pKB for each of the compounds provided.
- tested-target: Substance-P receptor (Cavia porcellus) (UniProt P30547)
- Sequence (P30547 whole entry): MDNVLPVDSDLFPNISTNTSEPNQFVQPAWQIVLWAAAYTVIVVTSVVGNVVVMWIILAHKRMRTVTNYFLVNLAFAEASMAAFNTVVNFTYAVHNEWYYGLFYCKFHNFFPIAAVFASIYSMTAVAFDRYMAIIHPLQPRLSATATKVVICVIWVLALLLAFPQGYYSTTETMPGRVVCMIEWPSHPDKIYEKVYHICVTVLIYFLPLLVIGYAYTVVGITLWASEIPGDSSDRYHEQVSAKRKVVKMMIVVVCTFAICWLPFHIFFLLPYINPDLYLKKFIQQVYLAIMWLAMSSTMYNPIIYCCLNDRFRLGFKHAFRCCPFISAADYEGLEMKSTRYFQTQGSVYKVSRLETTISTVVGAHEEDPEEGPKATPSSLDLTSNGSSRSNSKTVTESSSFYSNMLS
- experiment-summary: Antagonistic activity against the highly selective tachykinin receptor 1 in guinea pig ileum
- Format: functional, tissue-based

Request: Fill blank: measured pKB of the compound CC(C)C[C@@H](C(=O)N[C@H](Cc1ccccc1)C(N)=O)N1CCC2(CCCN2C(=O)[C@H](Cc2ccccc2)NC(=O)[C@H](Cc2ccccc2)NC(=O)CCCN)C1=O (some centres undefined) is ____.
Result: 6.28

Request: Fill blank: measured pKB of the compound CC(C)C[C@@H](C(=O)N[C@H](CC1CCCCC1)C(N)=O)N1CCC2(CCCN2C(=O)[C@H](Cc2ccccc2)NC(=O)[C@H](Cc2ccccc2)NC(=O)CCCN)C1=O (some centres undefined) is ____.
Result: 6.43

Request: Fill blank: measured pKB of the compound CSCC[C@@H](NC(=O)[C@H](CC(C)C)N1CCC2(CCCN2C(=O)[C@H](Cc2ccccc2)NC(=O)[C@H](Cc2ccccc2)NC(=O)CCCN)C1=O)C(N)=O (some centres undefined) is ____.
Result: 5.66

Request: Fill blank: measured pKB of the compound CC(C)C[C@@H](C(=O)NC(CCc1ccccc1)C(N)=O)N1CCC2(CCCN2C(=O)[C@H](Cc2ccccc2)NC(=O)[C@H](Cc2ccccc2)NC(=O)CCCN)C1=O (some centres undefined) is ____.
Result: 6.64

====

- tested-target: Substance-P receptor (Cavia porcellus)
- experiment-summary: Antagonistic activity against the highly selective tachykinin receptor 1 in guinea pig ileum
- Type: functional, tissue-based
Exercise: state measured pKB for each of the compounds provided.
Give the figure only, with no unit attached.

Request: Fill blank: measured pKB of the compound CC(C)C[C@@H](C(=O)NC(Cc1c[nH]c2ccccc12)C(N)=O)N1CCC2(CCCN2C(=O)[C@H](Cc2ccccc2)NC(=O)[C@H](Cc2ccccc2)NC(=O)CCCN)C1=O (stereo partly drawn) is ____.
Result: 6.62

Request: Fill blank: measured pKB of the compound CSCC[C@H](NC(=O)[C@H](CC(C)C)N1CCC2(CCCN2C(=O)[C@H](Cc2ccccc2)NC(=O)[C@H](Cc2ccccc2)NC(=O)CCCN)C1=O)C(N)=O (stereo partly drawn) is ____.
Result: 5.6

====

- tested-target: Substance-K receptor (Rattus norvegicus)
- Sequence (P16610 whole entry): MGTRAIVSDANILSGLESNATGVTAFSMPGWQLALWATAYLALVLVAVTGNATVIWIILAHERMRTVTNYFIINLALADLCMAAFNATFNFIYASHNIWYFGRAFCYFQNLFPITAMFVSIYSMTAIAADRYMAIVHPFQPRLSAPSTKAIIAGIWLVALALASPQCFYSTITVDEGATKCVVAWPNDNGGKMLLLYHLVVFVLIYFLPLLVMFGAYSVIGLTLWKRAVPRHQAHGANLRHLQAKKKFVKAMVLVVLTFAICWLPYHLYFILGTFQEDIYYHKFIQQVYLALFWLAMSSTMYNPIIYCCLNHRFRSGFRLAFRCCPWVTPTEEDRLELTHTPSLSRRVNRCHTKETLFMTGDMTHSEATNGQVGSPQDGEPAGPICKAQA
- experiment-summary: Agonist activity was measured at neurokinin-2 receptor in the rat colon muscularis mucosae
Square brackets hold non-standard residues; d marks the D form. Peptide text beside a SMILES is read from it. GABA = NCCCC(=O)O
recorded-endpoint: EC50

Request: Fill blank: measured EC50 of the compound CC(C)C[C@H](NC(=O)CNC(=O)[C@H](Cc1ccccc1)NC(=O)[C@H](Cc1ccccc1)NC(=O)CCCN)C(=O)N[C@@H](Cc1c[nH]c2ccccc12)C(N)=O (H-[GABA]FFGLW-NH2) is ____.
Result: > 16 µM

====

Exercise: state measured pKB for each of the molecules provided.
- tested-target: Substance-K receptor (Rattus norvegicus) (UniProt P16610)
- Sequence (P16610 whole entry): as above
- experiment-summary: Antagonistic activity against the highly selective tachykinin receptor 2 in rat colon muscularis mucosae
- Type: functional
Give the figure only, with no unit attached.

Request: Fill blank: measured pKB of the molecule CC(C)C[C@@H](C(=O)N[C@H](CC1CCCCC1)C(N)=O)N1CCC2(CCCN2C(=O)[C@H](Cc2ccccc2)NC(=O)[C@H](Cc2ccccc2)NC(=O)CCCN)C1=O (stereo partly specified) is ____.
Result: 5.86

Request: Fill blank: measured pKB of the molecule CC(C)C[C@@H](C(=O)NC(CCc1ccccc1)C(N)=O)N1CCC2(CCCN2C(=O)[C@H](Cc2ccccc2)NC(=O)[C@H](Cc2ccccc2)NC(=O)CCCN)C1=O (stereo partly specified) is ____.
Result: 5.84

Request: Fill blank: measured pKB of the molecule CC(C)C[C@@H](C(=O)N[C@H](Cc1ccccc1)C(N)=O)N1CCC2(CCCN2C(=O)[C@H](Cc2ccccc2)NC(=O)[C@H](Cc2ccccc2)NC(=O)CCCN)C1=O (stereo partly specified) is ____.
Result: 5.36

Request: Fill blank: measured pKB of the molecule CC(C)C[C@@H](C(=O)NC(Cc1c[nH]c2ccccc12)C(N)=O)N1CCC2(CCCN2C(=O)[C@H](Cc2ccccc2)NC(=O)[C@H](Cc2ccccc2)NC(=O)CCCN)C1=O (stereo partly specified) is ____.
Result: 5.27
